# experiment-summary: Clearance in cynomolgus monkey at 1 mg/kg, iv or 5 mg/kg, po administered via gavage measured upto 24 hrs by LC-MS/MS
# Type: ADME, organism-based, Macaca fascicularis
# test-parameters: in vivo
property-label: clearance (L/h/kg)

compound="NC(C(=O)N[C@@](Cc1ccccc1)(c1cc(F)cc(OC(F)(F)C(F)F)c1)c1ccc(F)c(OC2CC2)c1)C(O)(C(F)(F)F)C(F)(F)F (stereo partly specified)" property_label=clearance unit_text=L/h/kg value_measured=0.042

====

# tested-on: Voltage-gated inwardly rectifying potassium channel KCNH2 (Homo sapiens)
# Sequence (Q12809 whole entry): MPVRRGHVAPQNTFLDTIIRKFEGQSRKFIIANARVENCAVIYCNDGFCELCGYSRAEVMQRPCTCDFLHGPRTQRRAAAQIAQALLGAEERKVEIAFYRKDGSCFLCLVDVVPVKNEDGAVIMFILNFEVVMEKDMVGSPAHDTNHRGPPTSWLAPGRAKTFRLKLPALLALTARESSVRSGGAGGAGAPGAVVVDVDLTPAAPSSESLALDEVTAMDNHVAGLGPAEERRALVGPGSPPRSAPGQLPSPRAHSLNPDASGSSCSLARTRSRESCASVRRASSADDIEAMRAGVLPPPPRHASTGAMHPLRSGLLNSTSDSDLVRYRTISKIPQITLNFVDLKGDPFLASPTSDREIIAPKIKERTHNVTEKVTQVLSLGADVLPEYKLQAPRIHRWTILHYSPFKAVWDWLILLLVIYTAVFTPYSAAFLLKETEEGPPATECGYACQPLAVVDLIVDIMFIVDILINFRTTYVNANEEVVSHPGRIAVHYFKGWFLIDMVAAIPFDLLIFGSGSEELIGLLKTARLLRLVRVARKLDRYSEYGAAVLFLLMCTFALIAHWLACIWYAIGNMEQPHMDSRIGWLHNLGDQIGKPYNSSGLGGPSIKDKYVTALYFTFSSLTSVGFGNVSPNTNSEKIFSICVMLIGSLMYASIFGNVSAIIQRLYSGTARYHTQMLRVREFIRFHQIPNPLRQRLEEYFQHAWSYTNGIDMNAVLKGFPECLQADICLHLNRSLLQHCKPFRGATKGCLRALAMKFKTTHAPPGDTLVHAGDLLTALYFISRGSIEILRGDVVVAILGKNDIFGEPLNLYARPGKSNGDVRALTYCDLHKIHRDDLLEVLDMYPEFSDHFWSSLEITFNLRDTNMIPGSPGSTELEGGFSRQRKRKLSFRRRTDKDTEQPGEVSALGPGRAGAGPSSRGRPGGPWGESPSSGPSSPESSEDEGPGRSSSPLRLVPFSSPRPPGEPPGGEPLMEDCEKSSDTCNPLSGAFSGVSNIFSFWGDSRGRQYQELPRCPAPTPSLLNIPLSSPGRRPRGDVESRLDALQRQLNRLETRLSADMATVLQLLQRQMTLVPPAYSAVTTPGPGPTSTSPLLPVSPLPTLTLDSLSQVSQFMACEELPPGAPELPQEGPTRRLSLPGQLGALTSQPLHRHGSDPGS
# experiment-summary: Inhibition of human ERG expressed in HEK293 cells by flux assay
# test-parameters: hek293
pIC50: −log10 of the molar value.
property-label: pIC50

compound="NC(C(=O)N[C@@](Cc1ccccc1)(c1cc(F)cc(OC(F)(F)C(F)F)c1)c1ccc(Cl)cn1)C(O)(C(F)(F)F)C(F)(F)F (stereo in doubt; 9b)" property_label=pIC50 value_measured="< 4.10"
